The following compounds are listed with their measured pEC50 values.
# tested-on: UniProtKB P29275
# Sequence (P29275 whole entry): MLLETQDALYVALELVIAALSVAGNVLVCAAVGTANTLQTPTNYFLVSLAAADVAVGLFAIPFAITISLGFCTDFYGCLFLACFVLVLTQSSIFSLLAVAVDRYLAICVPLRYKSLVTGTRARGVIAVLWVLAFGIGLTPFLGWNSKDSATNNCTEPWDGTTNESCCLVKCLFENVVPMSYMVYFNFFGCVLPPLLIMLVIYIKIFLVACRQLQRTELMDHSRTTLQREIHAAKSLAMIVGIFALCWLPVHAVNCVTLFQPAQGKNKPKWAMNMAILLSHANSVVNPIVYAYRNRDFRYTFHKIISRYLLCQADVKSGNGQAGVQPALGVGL
# protocol-details: cAMP HTRF assay for Gs coupled receptor, agonist test
# assay-conditions: agonist activity; HEK293 cells expressing recombinant human A2B; read-out: A2BAR EC50
pEC50: −log10 of the molar value.

I'm curious: which pEC50 was measured for COCCOc1ccc(-c2c(C#N)c(N)nc(SCC3COC3)c2C#N)cc1 [Compound 123] tested on UniProtKB P29275?
< 5.00

Also, N#Cc1c(N)nc(SCc2cccc3[nH]ccc23)c(C#N)c1-c1ccc(OC2CCOC2)cc1 (stereo not shown) [Compound 221] please.
< 5.00

Also, COCCOc1ccc(-c2c(C#N)c(SCc3cncnc3)nc(N3CC(F)C3)c2C#N)cc1 [Compound 249] please.
< 5.00

Also, N#Cc1c(SCC2COC2)nc(N2CCCC2)c(C#N)c1-c1ccc(OC2COC2)cc1 [Compound 292] please.
< 5.00

---

# tested-on: UniProt:P29275
# protocol-details: cAMP HTRF assay for Gs coupled receptor, agonist test
# assay-conditions: agonist activity; HEK293 cells expressing recombinant human A2B; read-out: A2BAR EC50
pEC50: −log10 of the molar value.
The following compounds are listed with their measured pEC50 values.

Example compounds with recorded pEC50:
N#Cc1c(N)nc(OCc2cccnc2)c(C#N)c1-c1ccc(OCCO)cc1 [Compound 159] : 8.48
COCCOc1ccc(-c2c(C#N)c(SCCO)nc(N3CCCC3)c2C#N)cc1 [Compound 117] : < 5.00
COCCOc1ccc(-c2c(C#N)c(SCc3cccnc3)nc(C3CC3)c2C#N)cc1 [Compound 46] : < 5.00
N#Cc1c(N)nc(SCc2cccnc2)c(C#N)c1-c1ccc(OCCOC(F)F)cc1 [Compound 40] : < 5.00

Looking for the measured pEC50 of COc1cccc(CSc2nc(N)c(C#N)c(-c3ccc(OC4COC4)cc3)c2C#N)c1 [Compound 33] , can you help?
6.25

Also, N#Cc1c(N)nc(SCc2c[nH]c3ccccc23)c(C#N)c1-c1ccc(OCCO)cc1 [Compound 206] please.
6.31

Also, N#Cc1c(SCC2COC2)nc(N2CC(F)(F)C2)c(C#N)c1-c1ccc(OCCO)cc1 [Compound 273] please.
< 5.00

Also, COCCOc1ccc(-c2c(C#N)c(SCc3cccnc3)nc(N3CCC3)c2C#N)cc1 [Compound 115] please.
< 5.00

---

# tested-on: human Adenosine A1 receptor (Homo sapiens, UniProt P30542)
# Construct: host or cells: CHO-K1
# Sequence (P30542 whole entry): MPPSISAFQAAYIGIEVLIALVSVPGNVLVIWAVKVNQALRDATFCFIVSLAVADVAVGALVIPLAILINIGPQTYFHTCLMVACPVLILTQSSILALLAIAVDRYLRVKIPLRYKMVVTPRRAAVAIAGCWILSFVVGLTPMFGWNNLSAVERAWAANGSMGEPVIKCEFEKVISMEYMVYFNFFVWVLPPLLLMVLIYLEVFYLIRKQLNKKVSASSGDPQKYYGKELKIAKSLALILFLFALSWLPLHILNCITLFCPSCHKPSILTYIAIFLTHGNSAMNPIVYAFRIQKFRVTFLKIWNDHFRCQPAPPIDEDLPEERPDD
# protocol-details: GTPγS scintillation proximity assay, agonist testing
# Assay type: biochemical
# assay-conditions: agonist activity; membrane extracts of CHO-K1 cells expressing recombinant human A1; read-out: A1AR EC50
# Procedure: SPA ^35S-GTPγS experiments were conducted with Epics Therapeutics membrane preparations. cAMP HTRF assays were conducted with recombinant cell lines. […] Protocol for agonist testing: membranes are mixed with GDP (volume:volume). […] Then the plates are centrifuged for 10 min at 2000 rpm, incubated at room temperature and counted for 30 sec/well with a PerkinElmer TopCount™ reader. • Conditions for the GTPγS scintillation proximity assay are shown in Table 14.
pEC50: −log10 of the molar value.
property-measured: pEC50

Example molecules with recorded pEC50:
N#Cc1c(N)nc(SCc2cncnc2)c(C#N)c1-c1ccc(OCCO)cc1 [Compound 175] : 7.70
COCCOc1ccc(-c2c(C#N)c(N)nc(SCCC#N)c2C#N)cc1 [Compound 122] : 5.99
N#Cc1c(N)nc(OCc2cccnc2)c(C#N)c1-c1ccc(OCCO)cc1 [Compound 159] : 7.39
CNCCSc1nc(N)c(C#N)c(-c2ccc(OCCOC)cc2)c1C#N [Compound 140] : 5.12
N#Cc1c(N)nc(SCC2COC2)c(C#N)c1-c1ccc(OC2CCOC2)cc1 (stereo not drawn) [Compound 219] : 6.81
N#Cc1c(N)nc(SCC2(F)COC2)c(C#N)c1-c1ccc(OCCO)cc1 [Compound 320] : 6.64

A = N#Cc1c(N)nc(SCc2cccc3[nH]ccc23)c(C#N)c1-c1ccc(OCCO)cc1 [Compound 8]
B = N#Cc1c(SCCO)nc(N2CCC2)c(C#N)c1-c1ccc(OCCO)cc1 [Compound 90]
Please tell me which of the two, A or B , has the higher reported pEC50 value. Give the label under which the chosen entry appears.
A
(A: 7.43, B: 6.46)
